system: passive cutaneous anaphylactic (PCA) reaction; assay: Passive cutaneous anaphylactic (PCA) reaction, reagin-allergen combination, in rats; type: in vivo; details: Rattus norvegicus, oral dose of 100 mg/kg, thirty minutes before intravenous allergen
Given measured inhibition in vivo at 100 mg/kg, output TRUE if it is greater than or equal to 80% and FALSE if not.

CN(C)c1cccc(C(=O)Nc2nnn[nH]2)c1O: FALSE
CCCC(=O)c1cc(CC)cc(C(=O)Nc2nnn[nH]2)c1O: FALSE
CC(=O)c1cc(C(=O)Nc2nnn[nH]2)c(O)c(C(C)=O)c1O: TRUE

Answer whether inhibition in vivo at 100 mg/kg of O=C(Nc1nnn[nH]1)c1ccc(O)cc1O [AJ, 2,4-dihydroxy-N-(tetrazol-5-yl)benzamide] is greater than or equal to 80%.
FALSE

Answer whether inhibition in vivo at 100 mg/kg of Cc1cc(C#N)c(O)c(C(=O)Nc2nnn[nH]2)c1 is greater than or equal to 80%.
FALSE

Answer whether inhibition in vivo at 100 mg/kg of Cc1cc(C=O)c(O)c(C(=O)Nc2nnn[nH]2)c1 is greater than or equal to 80%.
FALSE

Values were extracted from patent US4146631A.
